Molecular target: BACE1 (Homo sapiens, UniProt P56817)
Sequence (P56817 46-501, species assumed): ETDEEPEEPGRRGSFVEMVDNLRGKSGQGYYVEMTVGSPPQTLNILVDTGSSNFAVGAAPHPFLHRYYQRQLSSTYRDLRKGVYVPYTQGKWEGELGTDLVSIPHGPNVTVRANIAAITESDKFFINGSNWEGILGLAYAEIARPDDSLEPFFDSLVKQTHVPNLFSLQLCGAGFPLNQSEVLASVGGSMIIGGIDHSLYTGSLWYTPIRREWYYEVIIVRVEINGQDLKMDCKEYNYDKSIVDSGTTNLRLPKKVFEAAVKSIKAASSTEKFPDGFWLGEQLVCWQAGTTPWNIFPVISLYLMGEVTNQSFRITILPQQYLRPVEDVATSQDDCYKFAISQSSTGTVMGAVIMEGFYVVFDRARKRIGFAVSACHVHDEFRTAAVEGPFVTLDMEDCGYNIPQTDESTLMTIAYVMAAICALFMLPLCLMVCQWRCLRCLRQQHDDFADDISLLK
Experiment: In Vitro Enzymatic BACE FRET (Fluorescence Resonance Energy Transfer) Assay
Assay type: biochemical
Details: Table III; IC50's in uM ranges; read-out: BACE1 FRET assay

# molecule, IC50
rows = [
    ("NC1=N[C@@]2(CO1)c1cc(C#CC3CC3)ccc1Oc1ccc(Oc3ccccn3)cc12 [compound 211]", "0.1 to 1 µM"),
    ("CC(C)(C)OCCOc1ccc2c(c1)[C@]1(COC(N)=N1)c1cc(-c3cncnc3)ccc1O2 [compound 158]", "< 0.1 µM"),
    ("CC(C)(O)COc1ccc2c(c1)[C@]1(COC(N)=N1)c1cc(-c3ccccc3)ccc1O2 [compound 221]", "< 0.1 µM"),
    ("CC(C)(C)CC(=O)c1ccc2c(c1)[C@@]1(COC(N)=N1)c1cc(-c3ccc(F)nc3)ccc1O2 [150b]", "< 0.1 µM"),
    ("CC(C)(O)C#Cc1ccc2c(c1)[C@@]1(COC(N)=N1)c1cc(Br)cnc1O2 [compound 173]", "1 to 5 µM"),
    ("NC1=N[C@]2(CO1)c1cc(OC3CCC3)ccc1Oc1ccc(-c3cccnc3)cc12 [compound 195]", "< 0.1 µM"),
    ("C[C@@H]1OC(N)=N[C@]12c1cc(OCC(C)(C)C)ccc1Oc1ccc(-c3cncnc3)cc12 [126a]", "0.1 to 1 µM"),
    ("CC(C)(C)COc1ccc2c(c1)[C@@]1(COC(N)=N1)c1cc(-c3cnc4ccccn34)ccc1O2 [compound 192]", "1 to 5 µM"),
]
